Give measured maximal inhibition for each item. Keep answers brief.
- Test system: HEK293
- Experiment summary: maximal inhibition of ZIKV NS1 production (% inhibition); higher = stronger antiviral effect
Just the number.

Q. Any idea what maximal inhibition was measured for CC[C@]1(O)C[C@@H]2CN(CCc3c([nH]c4ccccc34)[C@@](C(=O)OC)(c3cc4c(cc3OC)N(C)[C@H]3[C@@](O)(C(=O)OC)[C@H](OC(C)=O)[C@]5(CC)C=CCN6CC[C@]43[C@@H]65)C2)C1 ?
A. 73

Q. Any idea what maximal inhibition was measured for Nc1ccc(-c2ccc3ncc4ccc(=O)n(-c5cccc(C(F)(F)F)c5)c4c3c2)cn1 ?
A. 90

Q. Any idea what maximal inhibition was measured for CCc1nc(N)nc(N)c1-c1ccc(Cl)cc1 ?
A. 88

Q. Any idea what maximal inhibition was measured for O=C(c1ccc(Nc2nccc(-c3cc4ccccc4s3)n2)cc1)N1CCC(N2CCCC2)CC1 ?
A. 100

Q. Any idea what maximal inhibition was measured for CC(=O)[C@]1(O)Cc2c(O)c3c(c(O)c2[C@@H](O[C@H]2C[C@H](N)[C@H](O)[C@H](C)O2)C1)C(=O)c1ccccc1C3=O ?
A. 86

Q. Any idea what maximal inhibition was measured for Cn1c2ccccc2c2c3c(c4c5ccccc5n(CCC#N)c4c21)CNC3=O ?
A. 82

Q. Any idea what maximal inhibition was measured for O=c1[nH]nc(Sc2ncc([N+](=O)[O-])s2)n1-c1ccc2c(c1)OCCO2 ?
A. 97

Q. Any idea what maximal inhibition was measured for OC[C@H]1O[C@@H](n2cnc3c(S)ncnc32)[C@H](O)[C@@H]1O ?
A. 99

----------
- Tested on: HEK293
- Experiment summary: IC50 for inhibition of ZIKV NS1 production
Please assign N whenever IC50 is at or above 1 µM, and Y whenever it is below.

Q. API: query returns whether the compound falls strictly under 1 µM in IC50. Query: CO[C@@H]1[C@@H](OC)[C@H](C)[C@@](O)(CC(=O)O)O[C@H]1[C@H](C)[C@H]1O[C@@]2(CC[C@@](C)([C@H]3CC[C@@](C)([C@@H]4O[C@@H]([C@H]5O[C@](C)(O)[C@H](C)C[C@@H]5C)C[C@@H]4O[C@@H]4C[C@H](OC)[C@@H](OC)[C@H](C)O4)O3)O2)C[C@H](O)[C@H]1C
A. N

Q. API: query returns whether the compound falls strictly under 1 µM in IC50. Query: CC(=O)O[C@H]1C(=O)[C@@]2(C)[C@H]([C@H](OC(=O)c3ccccc3)[C@]3(O)C[C@H](OC(=O)[C@H](O)[C@@H](NC(=O)c4ccccc4)c4ccccc4)C(C)=C1C3(C)C)[C@]1(OC(C)=O)CO[C@@H]1C[C@@H]2O
A. Y

Q. API: query returns whether the compound falls strictly under 1 µM in IC50. Query: O=C(Nc1cc(C(F)(F)F)cc(C(F)(F)F)c1)c1cc(Cl)ccc1O
A. N

Q. API: query returns whether the compound falls strictly under 1 µM in IC50. Query: COc1cc(NS(C)(=O)=O)ccc1Nc1c2ccccc2nc2ccccc12
A. N

Q. API: query returns whether the compound falls strictly under 1 µM in IC50. Query: CCc1c2c(nc3ccc(O)cc13)-c1cc3c(c(=O)n1C2)COC(=O)[C@]3(O)CC
A. Y

Q. API: query returns whether the compound falls strictly under 1 µM in IC50. Query: O=C1/C(=C/c2ccccc2)C[C@@]2(O)[C@H]3Cc4ccc(O)c5c4[C@@]2(CCN3CC2CC2)[C@H]1O5
A. N

Q. API: query returns whether the compound falls strictly under 1 µM in IC50. Query: CCc1ccc(OCc2ccccc2C(=O)Nc2ccc3nc(C)cc(N)c3c2)cc1
A. N

Q. API: query returns whether the compound falls strictly under 1 µM in IC50. Query: COc1cc(NCc2ccc3nc(N)nc(N)c3c2C)cc(OC)c1OC
A. N

----------
- Tested on: HEK293
- Experiment summary: cytotoxicity IC50 (ATP content, uninfected cells); higher = less cytotoxic
- Study conditions: infection: none
Give measured cytotoxicity IC50 for each item. Keep answers brief.
Write it as a number; the unit µM goes unstated.

Q. Any idea what cytotoxicity IC50 was measured for NS(=O)(=O)c1cccc2c1C(=O)c1cccc(O)c1C2=O ?
A. 2.8

Q. Any idea what cytotoxicity IC50 was measured for COc1ccc(-c2cc3c(C)nc(N)nc3n([C@H]3CC[C@H](OCCO)CC3)c2=O)cn1 ?
A. 0.47

Q. Any idea what cytotoxicity IC50 was measured for NCC(=O)Nc1ccc(-n2nc(C(F)(F)F)cc2-c2ccc3c(ccc4ccccc43)c2)cc1 ?
A. 10

----------
- Test system: HEK293
- Experiment summary: cytotoxicity IC50 (ATP content, uninfected cells); higher = less cytotoxic
- Study conditions: infection: none
Property measured: cytotoxicity IC50

Q. Query cytotoxicity IC50 on HEK293 for COc1cccc2c1C(=O)c1c(O)c3c(c(O)c1C2=O)C[C@@](O)(C(C)=O)C[C@@H]3O[C@H]1C[C@H](N)[C@H](O)[C@H](C)O1
A. > 100 µM

Q. Query cytotoxicity IC50 on HEK293 for O=C(Nc1ccncc1)C(=O)c1cn(Cc2ccc(Cl)cc2)c2ccccc12
A. 70 µM

Q. Query cytotoxicity IC50 on HEK293 for O=c1[nH]c2ccc(Cl)cc2c(N[C@@H]2CN3CCC2CC3)c1-c1nc2ccccc2[nH]1
A. 3.3 µM

Q. Query cytotoxicity IC50 on HEK293 for CC(C)C[C@H](NC(=O)CNC(=O)c1cc(Cl)ccc1Cl)B1OC(=O)C(CC(=O)O)(CC(=O)O)O1
A. 1.6 µM

Q. Query cytotoxicity IC50 on HEK293 for C[C@@H]1CC[C@@]2(OC1)O[C@H]1C[C@H]3[C@@H]4CC=C5C[C@@H](O[C@@H]6O[C@H](CO)[C@@H](O[C@@H]7O[C@@H](C)[C@H](O)[C@@H](O)[C@H]7O)[C@H](O)[C@H]6O[C@@H]6O[C@@H](C)[C@H](O)[C@@H](O)[C@H]6O)CC[C@]5(C)[C@H]4CC[C@]3(C)[C@H]1[C@@H]2C
A. 45 µM

Q. Query cytotoxicity IC50 on HEK293 for COc1c(C)c2c(c(O)c1C/C=C(\C)CCC(=O)OCCN1CCOCC1)C(=O)OC2
A. > 100 µM

Q. Query cytotoxicity IC50 on HEK293 for O=C(Nc1ncc(-c2cc(C(F)F)nn2-c2c(Cl)cccc2Cl)s1)C1CC1
A. > 100 µM

----------
- Test system: HEK293
- Experiment summary: cytotoxicity IC50 (ATP content, uninfected cells); higher = less cytotoxic
- Study conditions: infection: none
Give measured cytotoxicity IC50 for each item. Keep answers brief.
Write it as a number; the unit µM goes unstated.

Q. Query cytotoxicity IC50 on HEK293 for O=[N+]([O-])c1ccc2c(c1)S(=O)(=O)C=C2
A. 7.2

Q. Query cytotoxicity IC50 on HEK293 for Cc1nc(N)nc(N)c1-c1ccc(Cl)c(Cl)c1
A. 1.5

----------
Give measured cytotoxicity IC50 for each item. Keep answers brief.
- Test system: HEK293
- Experiment summary: cytotoxicity IC50 (ATP content, uninfected cells); higher = less cytotoxic
- Study conditions: infection: none
Write it as a number; the unit µM goes unstated.

Q. Any idea what cytotoxicity IC50 was measured for CO[C@H]1[C@H](O)[C@@H](O)[C@H](n2c3c(Cl)cccc3c3c4c(c5c6cccc(Cl)c6[nH]c5c32)C(=O)NC4=O)O[C@@H]1CO ?
A. 60

Q. Any idea what cytotoxicity IC50 was measured for COc1ccc(-c2ccc3ncc4c(c3c2)n(-c2ccc(N3CCNCC3)c(C(F)(F)F)c2)c(=O)n4C)cn1 ?
A. 20

Q. Any idea what cytotoxicity IC50 was measured for CC1=C(CO)C(=O)O[C@@H]([C@@H](C)[C@H]2CC[C@H]3[C@@H]4C[C@H]5O[C@]56[C@@H](O)C=CC(=O)[C@]6(C)[C@H]4CC[C@]23C)C1 ?
A. 2.8

Q. Any idea what cytotoxicity IC50 was measured for CC[C@@H]([C@H](C)O)n1ncn(-c2ccc(N3CCN(c4ccc(OC[C@@H]5CO[C@@](Cn6cncn6)(c6ccc(F)cc6F)C5)cc4)CC3)cc2)c1=O ?
A. 9.7

Q. Any idea what cytotoxicity IC50 was measured for CC(C)c1ccc(Cn2ccc3c4c(N)nc(NC5CC5)nc4ccc32)cc1 ?
A. 78

----------
- Tested on: HEK293
- Experiment summary: cytotoxicity IC50 (ATP content, uninfected cells); higher = less cytotoxic
- Study conditions: infection: none
Property measured: cytotoxicity IC50 (nM)
Write it as a number; the unit nM goes unstated.

Q. Any idea what cytotoxicity IC50 was measured for COCC[n+]1c2c(n(Cc3cnccn3)c1C)C(=O)c1ccccc1C2=O ?
A. 30

Q. Any idea what cytotoxicity IC50 was measured for C[C@@H]1O[C@@H](O[C@H]2C[C@@H](O)[C@]3(CO)[C@H]4[C@H](O)C[C@]5(C)[C@@H](C6=CC(=O)OC6)CC[C@]5(O)[C@@H]4CC[C@]3(O)C2)[C@H](O)[C@H](O)[C@H]1O ?
A. 190

Q. Any idea what cytotoxicity IC50 was measured for C[C@@H]1O[C@@H](O[C@H]2C[C@@H](O)[C@]3(CO)[C@H]4[C@H](O)C[C@]5(C)[C@@H]([C@@H]6COC(=O)C6)CC[C@]5(O)[C@@H]4CC[C@]3(O)C2)[C@H](O)[C@H](O)[C@H]1O ?
A. 850

Q. Any idea what cytotoxicity IC50 was measured for c1ccc2c(-c3cnn4cc(-c5ccc(N6CCNCC6)cc5)cnc34)ccnc2c1 ?
A. 80000

Q. Any idea what cytotoxicity IC50 was measured for CCn1nnc2c(N3CCOCC3)nc(-c3ccc(NC(=O)Nc4ccc(C(=O)N5CCN(C)CC5)cc4)cc3)nc21 ?
A. 650
